These measurements were taken from ChEMBL document CHEMBL3784917.

- Target or system: Lysine-specific demethylase 4A (Homo sapiens, UniProt O75164)
- Sequence (O75164 whole entry, the tested form may be a part): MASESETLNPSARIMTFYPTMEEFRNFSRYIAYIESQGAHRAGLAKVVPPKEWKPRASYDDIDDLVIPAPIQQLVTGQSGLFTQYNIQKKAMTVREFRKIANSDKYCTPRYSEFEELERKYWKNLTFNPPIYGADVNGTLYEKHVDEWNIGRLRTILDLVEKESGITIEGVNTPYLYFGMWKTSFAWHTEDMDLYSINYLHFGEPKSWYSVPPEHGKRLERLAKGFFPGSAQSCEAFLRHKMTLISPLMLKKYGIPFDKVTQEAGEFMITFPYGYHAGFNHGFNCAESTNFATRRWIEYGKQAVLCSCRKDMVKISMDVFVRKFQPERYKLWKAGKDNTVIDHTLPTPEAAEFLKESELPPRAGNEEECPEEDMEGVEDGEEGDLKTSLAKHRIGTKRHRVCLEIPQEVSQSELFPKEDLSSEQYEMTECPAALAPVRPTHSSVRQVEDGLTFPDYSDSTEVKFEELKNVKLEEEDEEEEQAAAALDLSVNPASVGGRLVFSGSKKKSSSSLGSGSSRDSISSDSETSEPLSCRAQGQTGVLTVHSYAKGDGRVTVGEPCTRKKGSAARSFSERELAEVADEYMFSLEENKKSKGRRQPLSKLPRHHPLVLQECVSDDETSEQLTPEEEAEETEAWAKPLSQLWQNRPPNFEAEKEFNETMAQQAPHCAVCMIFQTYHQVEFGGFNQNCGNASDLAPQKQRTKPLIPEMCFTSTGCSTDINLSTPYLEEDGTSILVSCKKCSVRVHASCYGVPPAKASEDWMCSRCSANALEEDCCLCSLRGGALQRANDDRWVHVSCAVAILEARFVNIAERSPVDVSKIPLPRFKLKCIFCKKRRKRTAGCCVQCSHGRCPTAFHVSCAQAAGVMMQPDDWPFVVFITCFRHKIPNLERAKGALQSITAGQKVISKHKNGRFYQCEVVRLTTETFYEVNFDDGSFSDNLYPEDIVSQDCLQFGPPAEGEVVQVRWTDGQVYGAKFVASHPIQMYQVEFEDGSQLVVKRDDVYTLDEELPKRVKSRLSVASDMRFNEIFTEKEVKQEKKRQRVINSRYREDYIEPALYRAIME
- Assay remarks: Inhibition of recombinant human N-terminal His-tagged KDM4A (1 to 350 residues) expressed in Escherichia coli using methylated biotin-H3K9 substrate preincubated for 10 mins followed by substrate addition measured after 10 mins by AlphaLisa assay
Value type: IC50

Below, 2 compounds whose answers are already recorded.
{"Molecule": "CCN(CCN(C)C)C(=O)CNCc1cc(CNC(=O)C(F)(F)F)ccn1", "IC50": "> 2500 nM"}
{"Molecule": "CCN(CC)CCCCNCc1cc(C=O)ccn1", "IC50": "> 2500 nM"}

Here is the next item to consider.
Request: // query IC50 value for entry "CCN(CCN(C)C)C(=O)CNCc1cc(C(=O)O)ccn1"
Response: < 100 nM

----------
- Target or system: Lysine-specific demethylase 6B (Homo sapiens, UniProt O15054)
- Sequence (O15054 whole entry): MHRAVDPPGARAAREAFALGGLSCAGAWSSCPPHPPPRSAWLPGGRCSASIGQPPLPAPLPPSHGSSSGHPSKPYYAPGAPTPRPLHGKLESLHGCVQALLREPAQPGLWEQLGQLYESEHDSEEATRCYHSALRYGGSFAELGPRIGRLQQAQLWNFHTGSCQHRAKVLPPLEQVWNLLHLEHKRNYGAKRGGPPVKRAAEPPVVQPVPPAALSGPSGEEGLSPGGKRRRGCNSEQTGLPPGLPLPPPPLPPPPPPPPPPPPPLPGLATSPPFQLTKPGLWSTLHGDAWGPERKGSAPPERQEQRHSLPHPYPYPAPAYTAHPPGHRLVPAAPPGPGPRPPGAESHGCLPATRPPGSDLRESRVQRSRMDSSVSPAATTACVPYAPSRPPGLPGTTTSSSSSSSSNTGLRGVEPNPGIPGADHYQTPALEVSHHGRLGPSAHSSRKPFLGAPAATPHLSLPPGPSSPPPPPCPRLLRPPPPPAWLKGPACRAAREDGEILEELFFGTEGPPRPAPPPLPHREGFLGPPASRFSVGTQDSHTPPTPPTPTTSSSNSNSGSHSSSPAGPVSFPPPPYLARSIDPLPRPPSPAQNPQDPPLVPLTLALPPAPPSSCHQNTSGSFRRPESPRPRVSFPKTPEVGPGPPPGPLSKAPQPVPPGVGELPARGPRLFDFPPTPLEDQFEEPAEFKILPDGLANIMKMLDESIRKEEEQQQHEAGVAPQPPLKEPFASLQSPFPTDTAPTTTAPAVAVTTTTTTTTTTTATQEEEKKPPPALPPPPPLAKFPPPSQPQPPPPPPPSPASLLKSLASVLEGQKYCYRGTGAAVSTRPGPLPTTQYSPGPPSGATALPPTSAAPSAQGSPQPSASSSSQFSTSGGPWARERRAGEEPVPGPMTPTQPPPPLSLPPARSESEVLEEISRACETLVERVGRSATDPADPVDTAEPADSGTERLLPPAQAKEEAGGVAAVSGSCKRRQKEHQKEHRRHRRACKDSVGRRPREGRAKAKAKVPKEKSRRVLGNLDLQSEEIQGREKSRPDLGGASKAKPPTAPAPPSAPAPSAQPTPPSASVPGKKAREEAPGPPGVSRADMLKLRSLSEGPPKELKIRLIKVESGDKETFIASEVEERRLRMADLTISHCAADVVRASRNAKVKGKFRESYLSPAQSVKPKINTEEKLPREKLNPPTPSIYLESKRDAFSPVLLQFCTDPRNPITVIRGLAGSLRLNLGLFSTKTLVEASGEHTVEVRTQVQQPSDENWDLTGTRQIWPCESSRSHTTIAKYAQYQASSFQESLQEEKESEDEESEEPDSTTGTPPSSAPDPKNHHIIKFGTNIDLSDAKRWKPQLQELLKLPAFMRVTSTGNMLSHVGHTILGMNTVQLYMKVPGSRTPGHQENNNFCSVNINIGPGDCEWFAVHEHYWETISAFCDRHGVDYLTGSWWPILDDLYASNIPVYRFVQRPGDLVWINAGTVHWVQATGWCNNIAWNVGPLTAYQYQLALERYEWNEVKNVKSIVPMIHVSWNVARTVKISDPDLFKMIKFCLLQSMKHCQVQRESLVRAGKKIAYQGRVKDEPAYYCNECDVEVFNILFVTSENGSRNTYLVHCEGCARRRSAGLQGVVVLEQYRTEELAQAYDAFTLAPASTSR
- Assay remarks: Inhibition of KDM6B (unknown origin) after 24 hrs by alphascreen assay
Value type: IC50

Request: // query IC50 value for entry "CCCCCCCCOC(=O)c1ccc(O)c2ncccc12"
Response: > 100 µM

----------
pIC50: −log10 of the molar value.
pIC50, Lysine-specific demethylase 4C (Homo sapiens): measured values

{"Molecule": "CCN(CC)CCCCNCc1cc(C=O)ccn1", "Target or system": "Lysine-specific demethylase 4C (Homo sapiens)", "pIC50": "< 5.60"}
{"Molecule": "CCN(CCN(C)C)C(=O)CNCc1cc(C(=O)OC)ccn1", "Target or system": "Lysine-specific demethylase 4C (Homo sapiens)", "pIC50": "> 7.00"}

Request: Lab request: please report pIC50 under test system Lysine-specific demethylase 4C (Homo sapiens) for "CCOC(=O)c1ccnc(CNCC(=O)N(CC)CCN(C)C)c1"
Response: 7.00

Request: Lab request: please report pIC50 under test system Lysine-specific demethylase 4C (Homo sapiens) for "O=C(O)c1ccnc(CNCc2nccn2C/C=C/c2ccccc2)c1"
Response: < 5.60

Request: Lab request: please report pIC50 under test system Lysine-specific demethylase 4C (Homo sapiens) for "CCN(CCN(C)C)C(=O)CNCc1cc(C(=O)O)ccn1"
Response: > 7.00

Request: Lab request: please report pIC50 under test system Lysine-specific demethylase 4C (Homo sapiens) for "CCN(CCN(C)C)C(=O)CNCc1cc(CNC(=O)C(F)(F)F)ccn1"
Response: < 5.60

Request: Lab request: please report pIC50 under test system Lysine-specific demethylase 4C (Homo sapiens) for "O=C(O)c1cnnc(CNCC(=O)N2CCCCC2)c1"
Response: > 6.60

----------
- Target or system: Lysine-specific demethylase 5C (Homo sapiens, UniProt P41229)
- Sequence (P41229 whole entry): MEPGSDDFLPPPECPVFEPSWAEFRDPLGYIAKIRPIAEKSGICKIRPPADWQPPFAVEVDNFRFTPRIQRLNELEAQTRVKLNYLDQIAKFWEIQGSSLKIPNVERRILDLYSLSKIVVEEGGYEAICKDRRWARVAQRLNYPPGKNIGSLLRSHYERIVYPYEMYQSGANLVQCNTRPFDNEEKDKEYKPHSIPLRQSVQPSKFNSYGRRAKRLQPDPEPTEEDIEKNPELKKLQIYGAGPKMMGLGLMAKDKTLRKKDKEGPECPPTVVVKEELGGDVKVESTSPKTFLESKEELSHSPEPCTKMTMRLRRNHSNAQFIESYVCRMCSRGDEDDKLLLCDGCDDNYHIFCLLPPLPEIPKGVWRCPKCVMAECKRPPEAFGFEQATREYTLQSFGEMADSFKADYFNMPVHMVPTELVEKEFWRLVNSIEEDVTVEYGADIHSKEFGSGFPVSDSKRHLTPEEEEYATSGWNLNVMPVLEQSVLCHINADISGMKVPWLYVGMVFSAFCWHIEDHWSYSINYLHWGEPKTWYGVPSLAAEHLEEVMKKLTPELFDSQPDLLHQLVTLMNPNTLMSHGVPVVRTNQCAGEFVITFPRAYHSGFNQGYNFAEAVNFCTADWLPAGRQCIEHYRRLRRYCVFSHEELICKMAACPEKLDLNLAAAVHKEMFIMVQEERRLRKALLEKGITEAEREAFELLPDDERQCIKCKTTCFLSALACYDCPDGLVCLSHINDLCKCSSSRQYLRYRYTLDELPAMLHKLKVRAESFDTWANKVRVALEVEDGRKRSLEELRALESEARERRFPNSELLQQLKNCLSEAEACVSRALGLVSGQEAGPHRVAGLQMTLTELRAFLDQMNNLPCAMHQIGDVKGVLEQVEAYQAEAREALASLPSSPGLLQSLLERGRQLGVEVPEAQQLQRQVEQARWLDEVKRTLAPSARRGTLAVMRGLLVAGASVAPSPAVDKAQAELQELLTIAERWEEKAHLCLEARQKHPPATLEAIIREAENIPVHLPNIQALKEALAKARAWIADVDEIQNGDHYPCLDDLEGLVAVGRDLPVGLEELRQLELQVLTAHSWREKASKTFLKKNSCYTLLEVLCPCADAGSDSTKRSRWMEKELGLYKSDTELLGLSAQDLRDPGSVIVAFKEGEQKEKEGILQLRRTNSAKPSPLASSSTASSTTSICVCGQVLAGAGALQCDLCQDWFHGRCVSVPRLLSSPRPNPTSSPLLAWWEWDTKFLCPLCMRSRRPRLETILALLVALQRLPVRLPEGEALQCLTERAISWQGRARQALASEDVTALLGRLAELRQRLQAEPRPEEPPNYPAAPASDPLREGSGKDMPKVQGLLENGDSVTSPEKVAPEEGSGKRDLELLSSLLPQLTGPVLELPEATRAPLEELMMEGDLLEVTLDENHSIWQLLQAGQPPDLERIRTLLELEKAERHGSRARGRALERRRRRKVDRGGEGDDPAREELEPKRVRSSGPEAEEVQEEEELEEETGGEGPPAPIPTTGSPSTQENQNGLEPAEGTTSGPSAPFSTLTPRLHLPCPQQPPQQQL
- Assay remarks: biochemical
The reader will find reported IC50 values listed item by item below.

Below, 2 compounds whose answers are already recorded.
{"Molecule": "CCN(CCN(C)C)C(=O)CNCc1cc(CNC(=O)C(F)(F)F)ccn1", "Value type": "IC50", "Test result": "0.25 µM"}
{"Molecule": "CCN(CC)CCCCNCc1cc(C=O)ccn1", "Value type": "IC50", "Test result": "< 0.25 µM"}

Here is the next item to consider.
Request: // query IC50 value for entry "CCN(CCN(C)C)C(=O)CNCc1cc(C(=O)O)ccn1"
Response: < 0.1 µM

----------
pIC50, Lysine-specific demethylase 3B (Homo sapiens): measured values
pIC50: −log10 of the molar value.

{"Molecule": "CCN(CC)CCCCNCc1cc(C=O)ccn1", "pIC50": "< 5.60"}

Here is the next item to consider.
Request: Lab request: please report pIC50 under test system Lysine-specific demethylase 3B (Homo sapiens) for "CCN(CCN(C)C)C(=O)CNCc1cc(C(=O)O)ccn1"
Response: < 6.00
